- Test system: ZEAMA Sileno
- experiment-notes: Seed treatment with safener; post-emergence herbicide application
- Format: in vivo, maize
- condition-description: HER dose 8 g a.i./ha, Cyprosulfamide 0.5 g a.i./kg seed, Final assessment
measured-endpoint: Reduction [%] (%)
Give a bare numeral; the unit % is implied.

molecule	Reduction [%] [%]
C=CCOC(=O)C1CC(NC(=O)C2(C=C)CC(c3cc(F)cc(F)c3)=NO2)CO1 (mixture of isomers)	100
CN(C)C(=O)SCCOC(=O)C1C=CC(NC(=O)C2(C)CC(c3cc(F)cc(F)c3)=NO2)C1 (stereo not drawn)	100
C=CC1(C(=O)NC2C=C(C(=O)OC)OC2)CC(c2cc(C)cc(C)c2)=NO1 (stereo not drawn)	73
CC1(C(=O)NC2C=CC(C(=O)OCCSCc3ccccc3)C2)CC(c2cc(F)cc(F)c2)=NO1 (stereo not drawn)	83
COC(=O)C1C=CC(NC(=O)C2(C)CC(c3cc(F)cc(F)c3)=NO2)C1 (stereo not drawn)	75
C=CC1(C(=O)NC2COC(C(=O)OCCOC)C2)CC(c2cc(F)cc(F)c2)=NO1 (mixture of isomers)	100

Please look at C=CC1(C(=O)NC2COC(C(=O)OC)C2)CC(c2cc(F)cc(F)c2)=NO1 (stereo not drawn) [Example 1.70] and tell me its recorded Reduction [%] on ZEAMA Sileno. 77

Please look at COCCOC(=O)C1C=CC(NC(=O)C2(C(F)(F)F)CC(c3cc(F)cc(C#N)c3)=NO2)C1 (stereo not drawn) and tell me its recorded Reduction [%] on ZEAMA Sileno. 89

Please look at COCCOC(=O)C1C=CC(NC(=O)C2(C)CC(c3cc(Cl)cc(C#N)c3)=NO2)C1 (stereo not drawn) and tell me its recorded Reduction [%] on ZEAMA Sileno. 88
